molecular target: furin, P09958; assay: furin cleavage Z-score vs untreated control; higher = more cleavage, active = 3.5 or more, inactive = 1 or less, 8 variable residues between constant flanks; conditions: 7.5 min;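 note: purified furin at 1:10 enzyme:substrate in 50 mM HEPES pH 7.5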
Sequence (P09958 whole entry): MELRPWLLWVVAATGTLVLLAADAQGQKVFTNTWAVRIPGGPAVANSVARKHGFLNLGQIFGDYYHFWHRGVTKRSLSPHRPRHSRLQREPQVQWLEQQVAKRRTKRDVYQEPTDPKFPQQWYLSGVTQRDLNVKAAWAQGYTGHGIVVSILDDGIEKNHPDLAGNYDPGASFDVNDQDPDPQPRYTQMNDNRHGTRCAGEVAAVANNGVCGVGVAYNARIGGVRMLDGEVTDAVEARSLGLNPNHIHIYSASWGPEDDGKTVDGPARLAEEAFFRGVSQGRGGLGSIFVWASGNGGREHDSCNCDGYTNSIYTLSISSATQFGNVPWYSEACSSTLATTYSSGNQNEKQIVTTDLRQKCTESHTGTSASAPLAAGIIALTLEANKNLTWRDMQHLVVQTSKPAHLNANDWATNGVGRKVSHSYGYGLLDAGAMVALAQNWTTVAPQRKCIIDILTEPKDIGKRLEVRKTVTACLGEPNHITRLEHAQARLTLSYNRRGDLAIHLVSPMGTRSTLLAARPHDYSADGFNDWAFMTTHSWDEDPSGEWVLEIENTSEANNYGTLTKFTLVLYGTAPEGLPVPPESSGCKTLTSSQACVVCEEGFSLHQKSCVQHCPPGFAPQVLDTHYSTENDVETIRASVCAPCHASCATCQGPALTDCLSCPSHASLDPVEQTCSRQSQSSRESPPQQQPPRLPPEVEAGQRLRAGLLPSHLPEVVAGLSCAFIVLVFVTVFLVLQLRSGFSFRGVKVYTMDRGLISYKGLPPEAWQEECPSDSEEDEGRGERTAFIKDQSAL
Some of the results follow. The true hit rate is not given.
Answer with one of the outcomes active, inactive

Reference set, count: 3
CAAKAKRRRSAGNASASA [FS-744]	active
CARKMRLGDAAGNASASA [FS-1728]	inactive
CALRFRRKRRAGNASASA [FS-826]	active

Hi team, can someone confirm the assay call for CAVTKRDVLDAGNASASA [FS-3144] ?
inactive

Hi team, can someone confirm the assay call for CARLRRSLKPAGNASASA [FS-1745] ?
active

All figures here come from the supplement of paper PMC3545927.
